- System: RPS6KB1
- Design: species or system human, MV4-11 + K-562 + COLO205 + SK-N-BE2 + OVCAR-8
- applied-conditions: read-out: apparent Kd; compound concentrations:100 nM and 1000 nM (sheet 'Samples'); n = 1
measured-attribute: potency estimated from few doses (µM)
Report the value in µM with no unit label.

The examples below pair each entry with its known result.
[Q] Could you share which potency estimated from few doses value was measured for CN1C[C@@H]2Cn3c(c(C4=C(c5cn(C)c6ccccc56)C(=O)NC4=O)c4ccccc43)C[C@H]2C1.Cl ?
[A] 0.104

[Q] // query potency estimated from few doses value for entry Cn1cc(C2=C(c3cn(CCCSC(=N)N)c4ccccc34)C(=O)NC2=O)c2ccccc21
[A] 0.419

[Q] Reported potency estimated from few doses, compound Cl.Cl.NC[C@H](CC1CCCCC1)NC(=O)c1cc(Br)c(-c2ccnc3[nH]ccc23)s1.NC[C@H](CC1CCCCC1)NC(=O)c1cc(Br)c(-c2ccnc3[nH]ccc23)s1 [GSK1581427A] : ____
[A] 0.481

Further cases:
[Q] Would you mind telling me what potency estimated from few doses value was observed for CCn1c(-c2nonc2N)nc2cnc(Oc3cccc(NC(=O)c4ccc(N(C)C)cc4)c3)cc21 [GSK248233A] ?
[A] 0.978

[Q] Form field: reported potency estimated from few doses of CCn1c(-c2nonc2N)nc2c(C#CC(C)(C)O)nc(O[C@@H](CN)c3ccccc3)cc21.O=C(O)C(F)(F)F [GSK1007102B]
[A] 1.89

[Q] Dear colleague, I am looking for the recorded potency estimated from few doses of the following compound: Cn1cc(C2=C(c3c4n(c5ccccc35)CCC(CN)CC4)C(=O)NC2=O)c2ccccc21 (centres unmarked)
[A] 0.306

[Q] Endpoint output: potency estimated from few doses of CCn1c(-c2nonc2N)nc2cncc(C(=O)N3CC[C@H](N)C3)c21.Cl . Value?
[A] 0.0938

[Q] Look at this compound and give its reported potency estimated from few doses. O=C(O)C(F)(F)F.O=c1[nH]ccc2nc(N[C@@H]3CCNC3)nc(Nc3cc(Cl)cc(Cl)c3)c12 [GSK2188764A]
[A] 1.52

###

- Tested on: EPHB3
- Set-up: species or system human, MV4-11 + K-562 + COLO205 + SK-N-BE2 + OVCAR-8
- applied-conditions: read-out: apparent Kd; compound concentrations:100 nM and 1000 nM (sheet 'Samples'); n = 1
Tick Condition met if potency estimated from few doses is 2000 nM or greater. Tick Condition not met if potency estimated from few doses is less than 2000 nM.

Worked cases, answers included:
[Q] Could you tell me if the measured potency estimated from few doses of CCN(CC)CCOc1ccc(Nc2ncc3cc(-c4c(Cl)cccc4Cl)c(=O)n(C)c3n2)cc1 [SB-601273] reaches 2000 nM or more?
[A] Condition not met

[Q] Can O=C1NC(=O)C(N2CCc3ccccc32)=C1c1ccccc1Cl [SB-373598] be said to have potency estimated from few doses at or above 2000 nM?
[A] Condition not met

[Q] Evaluate CS(=O)(=O)CCn1c(=O)c(Oc2ccc(F)cc2F)cc2cnc(NC3CCOCC3)nc21 [RO5027956-000] : potency estimated from few doses at minimum 2000 nM?
[A] Condition met

--- query ---
[Q] # bool: potency estimated from few doses of NCCNS(=O)(=O)c1ccc(-c2ccnc3[nH]ccc23)cc1 [GSK977617A] >= 2000 nM
[A] Condition not met

###

- Test system: CDK7
- Set-up: species or system human, MV4-11 + K-562 + COLO205 + SK-N-BE2 + OVCAR-8
- applied-conditions: read-out: apparent Kd; compound concentrations:100 nM and 1000 nM (sheet 'Samples'); n = 1
Each entry belongs to exactly one class, chosen by where its potency estimated from few doses falls: bin 1: < 300 nM; bin 2: ≥ 300 nM and < 1000 nM; bin 3: ≥ 1000 nM

[Q] Textbook exercise: identify the category of the molecule given here, Cl.Cn1c(=O)c(Oc2ccccc2)cc2cnc(NC3CCOCC3)nc21 , according to its measured value.
[A] bin 3

More entries:
[Q] Hello team, could you let me know which band the following molecule falls into: COc1cc2ncn(-c3cc(OCCCc4ccccc4)c(C(N)=O)s3)c2cc1OC [GSK205189A]
[A] bin 1

[Q] Form: Item = Cc1ccc2c(-c3ccncc3)c(-c3ccc(F)cc3)nn2c1.Cl [GW461484A] ; Class = ?
[A] bin 1

###

- Test system: EPHB4
- Design: species or system human, MV4-11 + K-562 + COLO205 + SK-N-BE2 + OVCAR-8
- applied-conditions: read-out: apparent Kd; compound concentrations:100 nM and 1000 nM (sheet 'Samples'); n = 1
measured-attribute: potency estimated from few doses (nM)
Report as a plain number; the unit nM is understood.

Solved cases (2 shown):
[Q] // potency estimated from few doses lookup, key: O=C(Nc1c(F)cccc1F)c1cc(C(=O)c2ccccc2F)c[nH]1 [GSK1326180A]
[A] 1310

[Q] Which measured potency estimated from few doses value corresponds to CS(=O)(=O)CCn1c(=O)c(Oc2ccc(F)cc2F)cc2cnc(NC3CCOCC3)nc21 ?
[A] 519

For the next question, use this molecule.
[Q] Please look up its potency estimated from few doses: CCN(CC)CCOc1ccc(Nc2ncc3cc(-c4c(Cl)cccc4Cl)c(=O)n(C)c3n2)cc1
[A] 30.2

###

- Test system: AURKA
- Parameters: species or system human, MV4-11 + K-562 + COLO205 + SK-N-BE2 + OVCAR-8
- applied-conditions: read-out: apparent Kd; compound concentrations:100 nM and 1000 nM (sheet 'Samples'); n = 1
measured-attribute: potency estimated from few doses (nM)
Please give a number only; it is taken to be in nM.

Examples with their reported potency estimated from few doses follow.
[Q] Param item = CC(C)N1CCC(n2cnc(-c3ccc(F)cc3)c2-c2ccnc(N)n2)CC1 ; retrieve measured potency estimated from few doses.
[A] 931

[Q] Data request, read-out potency estimated from few doses, for CCn1cc(-c2ccnc3[nH]c(-c4cccc(CN(C)C)c4)cc23)c(-c2ccc(NC(=O)N(C)C)cc2)n1
[A] 197

Shifting focus to the molecule that follows.
[Q] Need potency estimated from few doses, item Cl.Cl.NCC(C(=O)Nc1cc(Br)c(-c2ccnc3[nH]ccc23)s1)c1ccccc1.NCC(C(=O)Nc1cc(Br)c(-c2ccnc3[nH]ccc23)s1)c1ccccc1 (stereo not drawn) [GSK1269851A]
[A] 768

###

- System: MAPK11
- Set-up: species or system human, MV4-11 + K-562 + COLO205 + SK-N-BE2 + OVCAR-8
- applied-conditions: read-out: apparent Kd; compound concentrations:100 nM and 1000 nM (sheet 'Samples'); n = 1
Output: class label from potency estimated from few doses. Mapping: low range (below 50 nM), mid range (50 nM to below 1000 nM), high range (1000 nM or more)

[Q] Which category fits this record: COCCNC(=O)c1ccc(-c2cc(C(=O)NC3CC3)cc(F)c2C)cc1 [GW868318X]
[A] mid range

[Q] Lab note: which band did O=c1c(Oc2ccc(F)cc2F)cc2cnc(NC3CCOCC3)nc2n1CCCO land in?
[A] low range

[Q] Classify this molecule: CN1CCC(n2cnc(-c3ccc(F)cc3)c2-c2ccnc(N)n2)CC1
[A] high range

[Q] Dear colleague, I would appreciate it if you could identify the bin for CNc1nccc(-c2c(-c3ccc(F)cc3)ncn2C2CCN(C)CC2)n1 and reply at your convenience.
[A] high range

###

- System: CDC42BPB
- Design: species or system human, MV4-11 + K-562 + COLO205 + SK-N-BE2 + OVCAR-8
- applied-conditions: read-out: apparent Kd; compound concentrations:100 nM and 1000 nM (sheet 'Samples'); n = 1
Form field: potency estimated from few doses (one value per entry).
Report field: quantity (unit follows the number).

Solved cases (5 shown):
[Q] Reported potency estimated from few doses, compound CCn1c(-c2nonc2N)nc2cncc(C(=O)N3CC[C@H](N)C3)c21.Cl : ____
[A] 932 nM

[Q] Reported potency estimated from few doses, compound Cl.Cl.NC[C@H](CC1CCCCC1)NC(=O)c1ccc(-c2ccnc3[nH]ccc23)s1.NC[C@H](CC1CCCCC1)NC(=O)c1ccc(-c2ccnc3[nH]ccc23)s1 [GSK1581428A] : ____
[A] 10.5 nM

[Q] For the compound shown here, O=C(O)C(F)(F)F.O=c1[nH]ccc2nc(N[C@@H]3CCNC3)nc(Nc3cc(Cl)cc(Cl)c3)c12 [GSK2188764A] , give the reported potency estimated from few doses.
[A] 1870 nM

[Q] Returns the measured potency estimated from few doses for the input compound. Input: COc1ccc(O)c(C(=O)c2ccc(C(=O)O[C@@H]3CCCNC[C@H]3NC(=O)c3ccncc3)cc2)c1F.Cl
[A] 51.3 nM

[Q] Any idea what potency estimated from few doses was measured for CCn1c(-c2nonc2N)nc2c(C#CC(C)(C)O)nc(O[C@@H](CN)c3ccccc3)cc21.O=C(O)C(F)(F)F [GSK1007102B] ?
[A] 1280 nM

New cases:
[Q] For the compound shown here, CCn1c(-c2nonc2N)nc2cncc(Br)c21 , give the reported potency estimated from few doses.
[A] 1970 nM

[Q] Request the reported potency estimated from few doses associated with COc1ccc(C[C@@H](CN)NC(=O)c2cc(Br)c(-c3ccnc4[nH]ccc34)s2)cc1.COc1ccc(C[C@@H](CN)NC(=O)c2cc(Br)c(-c3ccnc4[nH]ccc34)s2)cc1.Cl.Cl [GSK1389063A]
[A] 80.7 nM
